Experiment: Tissue distribution in S-180 tumor-bearing mice
Type: in vivo
Details: male, Kunming, mouse, kidney, intravenous; 4 mg/kg i.v., t 4 h; read-out: concentration of mitoxantrone in Kidney
Description: There were obvious differences in tissue distribution between PLM60 and FM in tumor-bearing mice. Male Kunming mice having a body weight about 20 g were used in the present example. […] Drugs were injected through vein in mice when tumor grew to 0.4-0.7 g. After the administration of drugs, mice were executed at various time points and their tissues were taken out to determine the concentration of mitoxantrone. […]
Quantity Name: concentration at 4 h (ng/g)
The figure you give is taken to be in ng/g; do not add the unit.

Name the recorded concentration at 4 h for O=C1c2c(O)ccc(O)c2C(=O)c2c(NCCNCCO)ccc(NCCNCCO)c21 .
17200
